target: Jak2 (UniProt O60674); assay: phosphorylation enrichment, bacterial display (enrichment ratio); higher = better substrate or ligand; peptides without Tyr show the background;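 also: 11-residue human phosphosite peptides and single-mutation variants displayed on the E. coli surface, counted by deep sequencing, each peptide's frequency after selection divided by its frequency in the unselected input library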;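 also: frequency after pTyr selection over input frequency; kinase dosed for 20-30% of maximal phosphorylation in three min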
Sequence (O60674 whole entry, looked up): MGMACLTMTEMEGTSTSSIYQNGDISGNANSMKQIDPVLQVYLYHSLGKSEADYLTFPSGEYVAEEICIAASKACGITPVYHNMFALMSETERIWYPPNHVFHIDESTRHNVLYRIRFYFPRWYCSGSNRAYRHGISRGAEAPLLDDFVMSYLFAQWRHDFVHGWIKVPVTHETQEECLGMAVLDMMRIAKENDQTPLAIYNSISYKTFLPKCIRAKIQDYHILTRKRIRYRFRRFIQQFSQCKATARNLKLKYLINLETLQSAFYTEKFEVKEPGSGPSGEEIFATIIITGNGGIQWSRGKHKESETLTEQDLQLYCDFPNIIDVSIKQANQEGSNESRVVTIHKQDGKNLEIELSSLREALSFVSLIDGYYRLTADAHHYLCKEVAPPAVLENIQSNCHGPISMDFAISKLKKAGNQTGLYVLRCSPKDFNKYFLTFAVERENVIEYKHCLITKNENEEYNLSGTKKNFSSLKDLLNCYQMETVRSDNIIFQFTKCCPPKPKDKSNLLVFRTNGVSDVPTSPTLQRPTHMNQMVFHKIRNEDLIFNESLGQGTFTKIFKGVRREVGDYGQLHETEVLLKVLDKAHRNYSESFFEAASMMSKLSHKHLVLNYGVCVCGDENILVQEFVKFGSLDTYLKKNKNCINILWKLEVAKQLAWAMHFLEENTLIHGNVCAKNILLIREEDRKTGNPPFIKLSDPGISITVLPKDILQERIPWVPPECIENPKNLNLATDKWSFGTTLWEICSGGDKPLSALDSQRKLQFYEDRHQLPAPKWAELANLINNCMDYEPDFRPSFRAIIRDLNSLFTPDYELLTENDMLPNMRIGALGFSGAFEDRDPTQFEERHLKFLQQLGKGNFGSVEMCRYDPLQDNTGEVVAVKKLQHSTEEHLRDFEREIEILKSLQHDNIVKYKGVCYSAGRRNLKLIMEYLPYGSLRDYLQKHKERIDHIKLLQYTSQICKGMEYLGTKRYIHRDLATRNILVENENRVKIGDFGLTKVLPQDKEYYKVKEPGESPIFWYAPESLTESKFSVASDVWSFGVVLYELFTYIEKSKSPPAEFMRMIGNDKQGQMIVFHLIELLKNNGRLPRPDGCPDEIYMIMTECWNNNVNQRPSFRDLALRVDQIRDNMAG
Listing of recorded phosphorylation enrichment by entry.
// no unit, no text: just the number

Here are 6 sequences together with their reported answers.
Sequence Content: RGFRVYFTPDS [PTPRF_Y450_YF]
Assayed System: Jak2 (UniProt O60674)
Test Readout: phosphorylation enrichment
Quantitative Result: 1.76

Sequence Content: TGFRPYVCPFD [YY1_Y383_D380Y_YF]
Assayed System: Jak2 (UniProt O60674)
Test Readout: phosphorylation enrichment
Quantitative Result: 1.12

Sequence Content: KGSLPYSLILD [PKD1L2_Y406_N407S]
Assayed System: Jak2 (UniProt O60674)
Test Readout: phosphorylation enrichment
Quantitative Result: 1.19

Sequence Content: HSDYQYGQRSQ [PKP2_Y168_S169G]
Assayed System: Jak2 (UniProt O60674)
Test Readout: phosphorylation enrichment
Quantitative Result: 0.446

Sequence Content: WNDLDYMDSRR [GAA_Y407]
Assayed System: Jak2 (UniProt O60674)
Test Readout: phosphorylation enrichment
Quantitative Result: 1.4

Sequence Content: QKLPLYILENN [VPS13B_Y2774_S2773L]
Assayed System: Jak2 (UniProt O60674)
Test Readout: phosphorylation enrichment
Quantitative Result: 1.06

Consider the sequence shown here: NELTYYCCKKD [CD59_Y87] What is its recorded phosphorylation enrichment?
2.83

====

target: FGFR1 (UniProt P11362); experiment: phosphorylation enrichment, bacterial display (enrichment ratio); higher = better substrate or ligand; peptides without Tyr show the background
Sequence (P11362 whole entry, looked up): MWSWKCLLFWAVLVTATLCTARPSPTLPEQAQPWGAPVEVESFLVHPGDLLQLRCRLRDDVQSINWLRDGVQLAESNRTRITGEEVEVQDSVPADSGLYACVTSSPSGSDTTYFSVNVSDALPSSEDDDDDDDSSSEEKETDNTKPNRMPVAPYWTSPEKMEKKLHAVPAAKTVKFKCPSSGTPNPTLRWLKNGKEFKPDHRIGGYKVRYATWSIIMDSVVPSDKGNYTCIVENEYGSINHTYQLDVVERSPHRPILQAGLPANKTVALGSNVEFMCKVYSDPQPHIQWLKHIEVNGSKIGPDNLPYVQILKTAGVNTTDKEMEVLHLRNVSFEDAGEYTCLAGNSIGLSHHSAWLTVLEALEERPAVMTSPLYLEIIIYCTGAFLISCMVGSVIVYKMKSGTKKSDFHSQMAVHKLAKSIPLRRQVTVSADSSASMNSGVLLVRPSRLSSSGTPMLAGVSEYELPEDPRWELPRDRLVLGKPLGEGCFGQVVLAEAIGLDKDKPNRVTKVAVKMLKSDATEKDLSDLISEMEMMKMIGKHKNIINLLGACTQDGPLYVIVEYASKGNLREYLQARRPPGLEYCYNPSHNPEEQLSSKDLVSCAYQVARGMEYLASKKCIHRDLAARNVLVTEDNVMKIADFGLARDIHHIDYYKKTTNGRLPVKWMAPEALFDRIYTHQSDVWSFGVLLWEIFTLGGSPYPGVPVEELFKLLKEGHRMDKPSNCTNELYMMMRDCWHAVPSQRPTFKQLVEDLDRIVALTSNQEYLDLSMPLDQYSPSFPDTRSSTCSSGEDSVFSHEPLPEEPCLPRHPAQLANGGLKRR
phosphorylation enrichment by entry:
// no unit, no text: just the number

Here is how some sequences turned out for phosphorylation enrichment.
Sequence Content: LNAGAYSKVVQ [PPT1_Y172]
phosphorylation enrichment: 0.41

Sequence Content: AVAFVYYKSIG [ADGRL4_Y301]
phosphorylation enrichment: 0.451

Sequence Content: AAVDEYLEHRR [FAM221A_Y17_Y20H]
phosphorylation enrichment: 0.467

Sequence Content: HLVSEYQQYQD [TUBB3_Y422_D417H]
phosphorylation enrichment: 0.868

Sequence Content: YLGRDYLETLM [DUS3L_Y610]
phosphorylation enrichment: 2.74

Give the measured phosphorylation enrichment of VDTPMYATMQR [TPO_Y55_A53P] .
0.52

Would you mind doing DVFRQYASLRG [GANAB_Y379_T383R] as well?
0.453

====

molecular target: Fes (UniProt P07332); assay: phosphorylation enrichment, bacterial display (enrichment ratio); higher = better substrate or ligand; peptides without Tyr show the background
Sequence (P07332 whole entry, looked up): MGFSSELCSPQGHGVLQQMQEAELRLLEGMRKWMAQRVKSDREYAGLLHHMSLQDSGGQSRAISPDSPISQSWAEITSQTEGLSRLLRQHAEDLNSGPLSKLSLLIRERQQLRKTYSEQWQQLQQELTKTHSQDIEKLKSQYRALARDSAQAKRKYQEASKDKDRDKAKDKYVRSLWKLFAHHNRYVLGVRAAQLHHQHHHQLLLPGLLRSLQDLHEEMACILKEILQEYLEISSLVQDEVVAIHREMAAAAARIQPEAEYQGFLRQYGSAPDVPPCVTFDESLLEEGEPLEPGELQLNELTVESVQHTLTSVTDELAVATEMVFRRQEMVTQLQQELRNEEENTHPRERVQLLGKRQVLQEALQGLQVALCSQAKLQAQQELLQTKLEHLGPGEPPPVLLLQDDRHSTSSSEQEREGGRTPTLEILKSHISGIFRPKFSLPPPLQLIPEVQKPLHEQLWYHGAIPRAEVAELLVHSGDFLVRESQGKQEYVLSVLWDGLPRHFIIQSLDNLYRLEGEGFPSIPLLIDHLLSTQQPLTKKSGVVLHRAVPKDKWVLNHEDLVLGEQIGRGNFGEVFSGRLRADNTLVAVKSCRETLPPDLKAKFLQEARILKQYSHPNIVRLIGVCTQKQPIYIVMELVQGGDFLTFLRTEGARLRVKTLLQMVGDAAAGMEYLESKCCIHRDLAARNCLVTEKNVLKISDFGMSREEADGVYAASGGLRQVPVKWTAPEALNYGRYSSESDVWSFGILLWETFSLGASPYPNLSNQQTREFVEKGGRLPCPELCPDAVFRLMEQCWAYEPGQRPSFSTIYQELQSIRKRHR
Test Readout: phosphorylation enrichment
// return a plain number; no unit text

Return reported phosphorylation enrichment; argument: LIDGYYRLTED [JAK2_Y373_A377E]
1.32

What do we get for ALPGEYIPTVF [RAC1_Y32_F28L] ?
1.16

Please do the same for SLGSPYGQPPR [PDLIM4_Y137] as well.
0.771

Another sequence to check: EREYKYGAHNH [OAT_Y50_Y55H]
0.603

And then SLKEFYGEDAK [ALDH3A1_Y272] , what is it?
1.08

One more sequence: TLNHQYDFTFH [CSNK1A1_Y292_D297H_YF]
1.17

And for LANNEYYFRVC ?
1.27

Consider next the sequence KVWGIYDCQQP [CYP3A7_Y75] in the same way.
1.61

Entry to check: IDSTPYRQWYE [RPS8_Y109]
1.05

Similarly, SELVCYDARVH [MET_Y971_R970C] ?
1.14

Also check KKILCYIQGGS [HYDIN_Y4610_N4606K]
1.46

Entry to check: SKNSKYNAGST [PSEN1_Y315_E318G]
0.776

One more sequence: ARDVIYIIIPA [FRKtide_2014]
1.36

Note, next up: CSRHFYQLTKL [AR_Y858_R856H]
1.17

And MSRNLYSGDYY [DDR2_Y736] ?
0.788

Quick one: KELSNYKHLTL [SLIT2_Y776]
0.528

Also EVTRLYGSVCD [TC2N_Y154_K151T] ?
1.29

Try this sequence too: EKHGQYLIGHG [EPHB4_Y581_D576E]
0.719

Here is the next sequence: QTEAPYRFIYM [PTPN11_Y511_Q510P]
1.6

Would you mind doing LQLLGHRPVFS [CHST6_Y358_Y358H_YF] as well?
1.33

One more sequence: PGQRVYVVAER [SHH_Y316]
0.91
